test system: BDF1 mice, s.c. Lewis lung carcinoma, T/C %; assay: NCI In Vivo Anticancer Drug Screen. Data for tumor model Lewis Lung Carcinoma (subcutaneous) in B6D2F1 (BDF1) mice; conditions: endpoint: mean tumor weight; dose: 300.0 mg/kg/injection; schedule: Q01DX011 (ip); vehicle: other; higher = larger tumour
Records with an inconclusive call do not appear.
Kindly supply the reported T/C values for the records listed here.

Request: Quick check: T/C of `O=C1CCC(=O)N1Br` ?
Result: 115 % of control

Request: Quick check: T/C of `O=C(O)CSC1(SCC(=O)O)CCCCC1` ?
Result: 104 % of control

Request: Quick check: T/C of `Cc1nnc(N)s1` ?
Result: 79 % of control

Request: Quick check: T/C of `O=S(=O)(Cl)c1cc(Cl)c(Cl)cc1Cl` ?
Result: 83 % of control

Request: Quick check: T/C of `CC(C)CCSc1nc(N)nc2nc[nH]c12` ?
Result: 59 % of control

Request: Quick check: T/C of `Nc1nc(SCc2ccccc2)c2ncn(C3CCCC3)c2n1` ?
Result: 54 % of control

* * *

test system: BDF1 mice, s.c. Lewis lung carcinoma, T/C %; assay: NCI In Vivo Anticancer Drug Screen. Data for tumor model Lewis Lung Carcinoma (subcutaneous) in B6D2F1 (BDF1) mice; conditions: endpoint: mean tumor weight; dose: 0.6 mg/kg/injection; schedule: Q01DX011 (ip); vehicle: saline; higher = larger tumour
Results filed as inconclusive are left out.
Kindly supply the reported T/C values for the records listed here.

Request: Quick check: T/C of `CC1=C2C(=CC(C)(C)[C@@H]2O)C(=O)[C@](C)(O)C12CC2` ?
Result: 19 % of control

Request: Quick check: T/C of `Nc1nc(SN=Nc2ccc(S(N)(=O)=O)cc2)c2[nH]cnc2n1` ?
Result: 64 % of control

Request: Quick check: T/C of COc1cccc2c1C(=O)c1c(O)c3c(c(O)c1C2=O)C[C@@](O)(C(C)=O)C[C@@H]3OC1CC(N)C(O)C(C)O1 (some centres undefined) ?
Result: 85 % of control

Request: Quick check: T/C of `CC1=C2C(=C[C@@](C)(CO)[C@@H]2O)C(=O)[C@](C)(O)C12CC2` ?
Result: 20 % of control

* * *

Kindly supply the reported T/C values for the records listed here.
tested on: BDF1 mice, s.c. Lewis lung carcinoma, T/C %; assay: NCI In Vivo Anticancer Drug Screen. Data for tumor model Lewis Lung Carcinoma (subcutaneous) in B6D2F1 (BDF1) mice; details: endpoint: mean tumor weight; dose: 12.5 mg/kg/injection; schedule: Q01DX011 (ip); vehicle: carboxymethylcellulose (CMC); higher = larger tumour
Records with an inconclusive call do not appear.

Request: Quick check: T/C of `C=CCNc1ccc(C)cc1` ?
Result: 92 % of control

Request: Quick check: T/C of `NC(=S)N/N=C/c1nccc2ccccc12` ?
Result: 103 % of control

Request: Quick check: T/C of `COc1cccc(C=O)c1O` ?
Result: 106 % of control

Request: Quick check: T/C of `N#Cc1ccc(S(N)(=O)=O)cc1` ?
Result: 66 % of control

Request: Quick check: T/C of `O=C1C(=O)c2ccccc2C(O)=C1CC=C(Cl)Cl` ?
Result: 88 % of control
